# System: human cervical cancer (HeLa) cells
# assayMethodText: MTT cytotoxicity assay, HeLa cells
# Format: cell-based
# measurementConditions: means ± SD (n = 3)
measurementName: IC50 (μg/mL) HeLa

Qu. Recorded IC50 (μg/mL) HeLa of N.N.[Cl][Pt][Cl] [CDDP, cis-diamminedichloroplatinum, reference compound] , please.
Ans. 3.41 ± 0.37 µg/mL

---

# Tested on: human liver (HL-7702) cells
# assayMethodText: MTT cytotoxicity assay, normal HL-7702 cells
# Format: cell-based
# measurementConditions: MTT assay; normal hepatocytes; means ± SD (n = 3)
measurementName: IC50 (μg/mL) HL-7702 (µg/mL)
Quick reminder: number only, in µg/mL, skip the unit.

Examples with their reported IC50 (μg/mL) HL-7702 follow.
C[C@H]1O[C@@H](O[C@H]2[C@H](O[C@H]3CC[C@]4(C)C5=C[C@H](O)C67C(=O)O[C@@](C)(C8CCC(C)(C)O8)[C@@]6(O)CC[C@@]7(C)[C@@H]5CCC4C3(C)C)OC[C@@H](OS(=O)(=O)[O-])[C@@H]2O)[C@H](O)[C@@H](O)[C@@H]1O.[Na+] (stereo partly drawn)    2.69
CO[C@@H]1[C@@H](O)[C@H](O[C@@H]2[C@@H](O)[C@H](O[C@H]3[C@H](O)[C@@H](O)[C@H](O[C@H]4[C@H](O[C@H]5CC[C@]6(C)C7=C[C@H](O)[C@]89C(=O)O[C@@](C)(C(O)CCC(C)C)[C@@]8(O)CC[C@@]9(C)[C@@H]7CC[C@H]6C5(C)C)OC[C@@H](OS(=O)(=O)[O-])[C@@H]4O)O[C@@H]3C)O[C@H](CO)[C@H]2O)O[C@H](CO)[C@H]1O.[Na+] (stereo partly drawn)    3.59
CO[C@@H]1[C@@H](O)[C@H](O[C@@H]2[C@@H](O)[C@H](O[C@H]3[C@H](O)[C@@H](O)[C@H](O[C@H]4[C@H](O[C@H]5CC[C@]6(C)C7=C[C@H](O)C89C(=O)O[C@@](C)(CCC=C(C)C)[C@@]8(O)CC[C@@]9(C)C7CCC6C5(C)C)OC[C@@H](OS(=O)(=O)[O-])[C@@H]4O)O[C@@H]3C)O[C@H](CO)[C@H]2O)O[C@H](CO)[C@H]1O.[Na+] (stereo partly drawn) [24-Dehydro echinoside A (2), 24-Dehydro echinoside A]    3.75

Qu. Recorded IC50 (μg/mL) HL-7702 of N.N.[Cl][Pt][Cl] [CDDP, cis-diamminedichloroplatinum, reference compound] , please.
Ans. 4.48

Qu. Recorded IC50 (μg/mL) HL-7702 of COC1C(O)C(CO)OC(OC2C(O)C(CO)OC(OC3C(C)OC(OC4C(OC5CCC6(C)C7=CC(O)C89C(=O)OC(C)(CCCC(C)C)C8(O)CCC9(C)C7CCC6C5(C)C)OCC(OS(=O)(=O)O)C4O)C(O)C3O)C2O)C1O.[Na+] (stereo not drawn) [Echinoside A (1), Echinoside A] , please.
Ans. 3.12

Qu. Recorded IC50 (μg/mL) HL-7702 of CO[C@@H]1[C@@H](O)[C@H](CO)O[C@@H](O[C@H]2[C@@H](O)[C@@H](O[C@H]3[C@@H](O)[C@@H](O[C@H]4OC[C@@H](O)[C@@H](O)[C@@H]4O)[C@H](O[C@H]4[C@H](O[C@H]5CC[C@@]6(C)[C@H](CC=C7[C@@H]6CC[C@]68C(=O)O[C@](C)(CCCC(C)C)[C@H]6[C@H](OC(C)=O)C[C@@]78C)C5(C)C)OC[C@@H](OS(=O)(=O)O)[C@H]4O)O[C@@H]3C)OC[C@@H]2O)[C@@H]1O [Frondoside A1 (10), Frondoside A1] , please.
Ans. 4.96
